# reported EC50; entries follow
# tested_system: T1, human PD-1 on cells (293T cells transfected with human PD-1) (human, UniProt Q15116 25-288)
# T1 construct: whole, on cells; Also used as the target for the functional rows, where PD-1 stands on human T cells
# T1 sequence (Q15116 25-288): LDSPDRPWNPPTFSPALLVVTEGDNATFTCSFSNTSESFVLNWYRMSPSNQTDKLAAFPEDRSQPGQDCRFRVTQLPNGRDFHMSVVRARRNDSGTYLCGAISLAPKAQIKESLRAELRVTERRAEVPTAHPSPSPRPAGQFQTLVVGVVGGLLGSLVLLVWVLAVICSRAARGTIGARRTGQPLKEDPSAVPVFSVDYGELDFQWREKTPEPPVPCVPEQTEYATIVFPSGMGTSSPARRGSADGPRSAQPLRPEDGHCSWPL
# protocol_text: FACS on hPD-1-293T cells

binder | EC50
chimeric 7D3-hIgG4 (antibody, V domains shown, Mouse variable regions with human IgG4 constant region) VH: EVKLVESGGGLVKPGGSLKLSCGASGFTFSSYGMSWVRQTPEKRLEWVATISGGGRDIYYPDSVKGRLTISRDNAKNNLYLQMSSLRSEDTALYYCVRQYYDDWFAYWGQGTLVTVSA VL: DIVLTQSPATLSVTPGDSVSLSCRASQSISNDLHWYQQKSHESPRLLIKYVSQSISGIPSRFSGSGSGTDFTLSINSVETEDFGMYFCQQSDSWPLTFGAGTKLELKR | 0.131 µg/mL
chimeric 4C10-hIgG4 (antibody, V domains shown, Mouse variable regions with human IgG4 constant region) VH: QVQLKQSGPGLVQPSQNLSVTCTVSGFSLTTYGVHWVRQSPGKGLEWLGVIWSGGSTDYNAAFISRLTISKDNARSQVFFKMNSLQVNDTAMYYCAREKSVYGNYVGAMDYWGQGTSVTVSS VL: SIVMTQTPKFLLVSAGDRVTITCKASQSVSDDVAWYQQKPGQSPKLLIYYAFNRYTGVPDRFTGSGYGTDFTFTISTVQSEDLAVYFCQQDYRSPWTFGGGTKLEIKR | 0.221 µg/mL
chimeric 6E1-hIgG4 (antibody, V domains shown, Mouse variable regions with human IgG4 constant region) VH: EVKLVESGGGLVKPGGSLKLSCAASGFTFSSYGMSWVRQTPEKRLEWVATISGGGRDTYYLDSVKGRFTISRDNAKNNLYLQMSSLRSEDTALYYCVRQYYDDWFAYWGQGTLVSNSA VL: DIVLTQTPATLSVTPGDSVSLSCRASQSLSNNLHWYQQKSHESPRLLIKYASQSISGIPSRFSGSGSGTDFTLSINSVETEDFGMYFCQQSNSWPLTFGAGTKLEMKR | 0.143 µg/mL
chimeric 10D1-hIgG4 (antibody, V domains shown, Mouse variable regions with human IgG4 constant region) VH: EVKLVESGGGLVKPGGSLKLSCAASGFTFSSYGMSWLRQTPEKRLEWVATMSGGGRDIYYPDSMKGRFTISRDNAKNNLYLQMSSLRSEDTALYYCARQYYDDWFAYWGQGTLVTVSA VL: DIVLTQTPATLSVTPGDSVSLSCRASQSISNNLHWYQQKSHESPRLLIKYASQSISGIPSRFSGSGSGTDFTLNINSVETEDFGMYFCQQSNSWPLTFGAGTKLELKR | 0.219 µg/mL
chimeric 22A5-hIgG4 (antibody, V domains shown, Mouse variable regions with human IgG4 constant region) VH: EVKLVESGGGLVKPGGSLKLSCSASGFSFSYYDMSWVRQTPEKGLEWVATISGGGRNTYFIDSVKGRFTISRDNVKNNLYLLMSSLRSEDTALYYCASPYEGAVDFWGQGTSVTVSS VL: DIVMTQSHKVMSTSVGDRVSITCKASQDVDNAVAWYQQNPGQSPKLLIKWASTRHHGVPDRFTGSGSGTDFTLTISTVQSEDLADFFCQQYSTFPYTFGGGTKLEIKR | 0.145 µg/mL
chimeric 13F1-hIgG4 (antibody, V domains shown, Full chimeric chains; also called 13F1-chimeric) VH: DVQLQESGPGLVKPSQSLSLTCTVTGYSITSDYAWNWIRQFPGNQLEWMAYISYSGYTSYNPSLKSRISITRDTSKNQFFLQLNSVTTEDTATYYCARSLDYDYGTMDYWGQGTSVTVSS VL: QIVLSQSPAILSASPGEKVTMTCRANSSVSSMHWYQQKPGSSPEPWIYAISNLAFGVPTRFSGSGSGTSYSLTISRVEAEDAATYFCQQWSSRPPTFGGGTKLEIKR | 0.113 µg/mL
chimeric 15H5-hIgG4 (antibody, V domains shown, Mouse variable regions with human IgG4 constant region) VH: EVKLVESGGGLVKPGGSLKLSCAASGFAFRSYDMSWVRQTPEKILEWVATISGGGSYTYYQDSVKGRFTISRDNARNTLYLQMSSLRSEDTALYYCASPYGPYFDYWGQGTTLTVSS VL: DIQMNQSPSSLSASLGDTITITCHASQSINVWLSWYQQKPGNIPKLLIYRASNLHTGVPSRFSGSGSGTGFTLTISSLQPDDIATYYCQQGQSYPWTFGGGTKLEIKR | 0.244 µg/mL
chimeric 14A6-hIgG4 (antibody, V domains shown, Mouse variable regions with human IgG4 constant region) VH: DVQLQESGPGLVKPSQSLSLTCTVTGYSITSDYAWNWIRQFPGNQLEWMAYISYSGYTSYNPSLKSRISITRDTSRNQFFLQLNSVTTEDTATYYCARSLDYDYGTMDYWGQGTSVTVSS VL: QIVLSQSPAILSASPGEKVTMTCRANSSVSSMHWYQQKPGSSPEPWIYAISNLAFGVPARFSGSGSGTSYSLTISRVEAEDAATYFCQQWNSRPPTFGGGTKLEIKR | 0.103 µg/mL
